- measured.target: T1, human glypican-3 (GPC3) (human, UniProt P51654 25-554)
- T1 construct: Endogenous on JHH-7, JHH-5, HepG2 and NCI-H446 tumour cells, or transiently expressed on CHO-S cells from a pTT5 plasmid; also called hGPC3; huGPC3
- method: flow cytometry on JHH-5 cells (GPC3-mid);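 also: antibody binding to cells at 4 °C for 24 h, detected with anti-human AF647 as geometric mean fluorescence of live cells versus antibody concentration, fitted by specific binding with Hill slope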
measured.metric: pKd
Reminder that pKd means the negative base-10 logarithm of the concentration expressed in mol/L.

Lookup: Sample H18L6_LC_N33E mAb, v40213 (antibody, human IgG1, kappa, V domains shown, M3-H18L6 chains with the stated light chain point mutation, IgG1/kappa) VH: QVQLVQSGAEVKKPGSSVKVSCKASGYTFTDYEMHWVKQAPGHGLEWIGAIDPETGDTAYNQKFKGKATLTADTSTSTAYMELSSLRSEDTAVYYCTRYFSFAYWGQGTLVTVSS VL: EIVLTQSPATLSLSPGERATISCRSSQSLRHSEGNTYLQWYQQKPGQAPRLLIYKVSNRFSGVPARFSGSGSGTDFTLTISSLEPEDFAVYFCYQSKHVPYTFGGGTKVEIKR — what was its pKd?
Found: 8.47

Lookup: Sample H18L6_LC_G34V mAb, v40211 (antibody, human IgG1, kappa, V domains shown, M3-H18L6 chains with the stated light chain point mutation, IgG1/kappa) VH: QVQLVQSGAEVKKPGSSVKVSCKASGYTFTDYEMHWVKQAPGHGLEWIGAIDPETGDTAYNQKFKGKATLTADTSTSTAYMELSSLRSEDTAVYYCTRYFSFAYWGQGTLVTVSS VL: EIVLTQSPATLSLSPGERATISCRSSQSLRHSNVNTYLQWYQQKPGQAPRLLIYKVSNRFSGVPARFSGSGSGTDFTLTISSLEPEDFAVYFCYQSKHVPYTFGGGTKVEIKR — what was its pKd?
Found: 9.62

Lookup: Sample H18L6_LC_G34K mAb, v40207 (antibody, human IgG1, kappa, V domains shown, Full-size IgG1/kappa) VH: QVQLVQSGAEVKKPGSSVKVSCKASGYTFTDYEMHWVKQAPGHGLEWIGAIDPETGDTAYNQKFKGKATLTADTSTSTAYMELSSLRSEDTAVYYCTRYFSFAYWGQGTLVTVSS VL: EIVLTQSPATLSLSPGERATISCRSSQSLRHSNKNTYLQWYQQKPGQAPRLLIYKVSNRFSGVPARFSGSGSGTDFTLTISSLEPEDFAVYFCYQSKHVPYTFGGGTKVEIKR — what was its pKd?
Found: 9.70
